These data points were gathered from patent US20150218281A1.

# test_system: T1, biotinylated hOX40L (R&D Systems, biotinylated in house) (human, UniProt P23510 51-183, biotinylated with Sulfo-NHS-LC-Biotin, sites not stated)
# T1 construct: same bought protein as m10, biotinylated; also called biotinylated OX40L
# T1 sequence: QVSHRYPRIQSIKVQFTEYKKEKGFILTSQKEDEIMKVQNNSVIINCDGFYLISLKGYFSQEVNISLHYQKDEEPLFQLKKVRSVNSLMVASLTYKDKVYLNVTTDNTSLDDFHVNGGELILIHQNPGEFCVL
# protocol_notes: hOX40L/hOX40 AlphaScreen, assay 2, heated at Tm+10 C
pIC50: −log10 of the molar value.
Below, each entry is listed alongside its reported pIC50.
readout_kind: pIC50

# binder, readout_kind, value
measured = [
    ("OX40L048 (VHH, not shown: small tags and cut ends) VHH: DVQLVESGGGLVQPGGSLRLSCAASRSIGRLDRMGWYRHRTGEPRELVATITGGSSINYADFVKGRFTISRDNSKNTVYLQMNSLRPEDTAVYYCNFNKYVTSRDTWGQGTLVTVSS", "pIC50", 9.50),
    ("OX40L056 (VHH, not shown: small tags and cut ends) VHH: DVQLVESGGGLVQPGGSLRLSCAASRSIGRLDRMGWYRHRPGKPRELVATITGGSSINYADSVKGRFTISRDNSKNTVYLQMNSLRPEDTAVYYCNFNKYVTSRDTWGQGTLVTVSS", "pIC50", 8.95),
    ("OX40L15B07 (VHH, monovalent Nanobody from E. coli; not shown: C-terminal c-myc and His6 tag) VHH: EVQLVESGGGLVQAGGSLRLSCAASRSIGRLDRMGWYRHRTGEPRELVATITGGSSINYGDFVKGRFTISIDNAKNTVYLQMNNLKPEDTAVYYCNFNKYVTSRDTWGQGTQVTVSS", "pIC50", 9.99),
    ("OX40L043 (VHH, not shown: small tags and cut ends) VHH: DVQLVESGGGLVQPGGSLRLSCAASRSIGRLDRMGWYRHRTGKPRELVATITGGSSINYGDFVKGRFTISRDNSKNTVYLQMNSLRPEDTAVYYCNFNKYVTSRDTWGQGTLVTVSS", "pIC50", 9.81),
    ("OX40L047 (VHH, not shown: small tags and cut ends) VHH: DVQLVESGGGLVQPGGSLRLSCAASRSIGRLDRMGWYRHAPGKPRELVATITGGSSINYGDFVKGRFTISRDNSKNTVYLQMNSLRPEDTAVYYCNFNKYVTSRDTWGQGTLVTVSS", "pIC50", 9.25),
    ("OX40L050 (VHH, not shown: small tags and cut ends) VHH: DVQLVESGGGLVQPGGSLRLSCAASRSIGRLDRMGWYRHRTGEPRELVATITGGSSINYADSVKGRFTISRDNSKNTVYLQMNSLRPEDTAVYYCNFNKYVTSRDTWGQGTLVTVSS", "pIC50", 9.79),
    ("OX40L041 (VHH, not shown: small tags and cut ends) VHH: DVQLVESGGGLVQPGGSLRLSCAASRSIGRLDRMGWYRHATGEPRELVATITGGSSINYGDFVKGRFTISRDNSKNTVYLQMNSLRPEDTAVYYCNFNKYVTSRDTWGQGTLVTVSS", "pIC50", 9.58),
    ("OX40L046 (VHH, not shown: small tags and cut ends) VHH: DVQLVESGGGLVQPGGSLRLSCAASRSIGRLDRMGWYRHRPGKPRELVATITGGSSINYGDFVKGRFTISRDNSKNTVYLQMNSLRPEDTAVYYCNFNKYVTSRDTWGQGTLVTVSS", "pIC50", 9.66),
    ("OX40L040 (VHH, not shown: small tags and cut ends) VHH: DVQLVESGGGLVQPGGSLRLSCAASRSIGRLDRMGWYRHRTGEPRELVATITGGSSINYGDFVKGRFTISRDNSKNTVYLQMNSLRPEDTAVYYCNFNKYVTSRDTWGQGTLVTVSS", "pIC50", 10.08),
]
